These data points were gathered from ChEMBL document CHEMBL4033778.

biological target: S-adenosylmethionine decarboxylase proenzyme (Homo sapiens); experiment: Inhibition of recombinant human N-terminal His6-tagged AdoMetDC expressed in Escherichia coli BL21/DE3 cells at pH 7.2 by RapidFire-MS-based enzyme activity assay
Sequence (P17707 1-67 limits assumed): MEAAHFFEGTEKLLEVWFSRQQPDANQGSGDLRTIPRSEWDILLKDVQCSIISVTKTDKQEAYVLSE
Sequence (P17707 68-334 limits assumed): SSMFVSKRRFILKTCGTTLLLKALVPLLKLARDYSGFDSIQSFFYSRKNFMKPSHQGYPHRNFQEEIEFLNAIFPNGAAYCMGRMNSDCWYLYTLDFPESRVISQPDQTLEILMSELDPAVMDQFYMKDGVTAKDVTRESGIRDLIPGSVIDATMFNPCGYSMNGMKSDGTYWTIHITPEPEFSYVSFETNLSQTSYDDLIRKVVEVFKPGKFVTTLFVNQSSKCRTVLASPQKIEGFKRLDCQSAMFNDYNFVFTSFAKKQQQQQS
recorded-metric: IC50

# example entries with known answers
mol	IC50
Cc1cc(Nc2cc(Br)cc(S(F)(F)(F)(F)F)c2)nc(N)n1	> 180 µM
Cc1cc(Nc2cc(Cl)cc(-c3ccc(F)c(Cl)c3)c2)nc(N)n1	> 180 µM
Nc1nc(Cl)cc(Nc2cc(Cl)cc(Cl)c2)n1	> 180 µM
Cc1cc(C)cc(Nc2cc(C)nc(N)n2)c1	> 180 µM
Cc1cc(Nc2cc(Cl)cc(-c3cccc(Cl)c3)c2)nc(N)n1	> 180 µM

Prompt line: API: value(readout= IC50, system= S-adenosylmethionine decarboxylase proenzyme (Homo sapiens), query= `Cc1cc(Nc2cc(Cl)cc(-c3ccc(Cl)c(Cl)c3)c2)nc(N)n1` )
Response line: > 180 µM

Prompt line: Thanks! And `Cc1cc(Nc2ccc(-c3cc(Cl)cc(Cl)c3)cc2)nc(N)n1` ?
Response line: > 180 µM

Prompt line: Thanks! And `CCc1cc(Nc2cc(C)nc(N)n2)cc(-c2ccc(F)cc2)c1` ?
Response line: > 180 µM

Prompt line: Thanks! And `Nc1nc(Nc2cc(Cl)cc(Cl)c2)cc(C(F)(F)F)n1` ?
Response line: > 180 µM

Prompt line: Thanks! And `Cc1cc(Nc2cc(Cl)cc(-c3ccc(-c4ccccc4)cc3)c2)nc(N)n1` ?
Response line: > 180 µM

----------
system: human MDR1 (P-gp); test: Apparent permeability from basolateral side to apical side in MDCK2 harboring human MDR1 cells in absence of Pgp inhibitor GF120918 at 10 to 20 uM after 60 mins by LC-MS/MS method; assay type: ADME, cell-based, Canis lupus familiaris, MDCK-II; details: dog, MDCK-MDR1
recorded-metric: Papp B→A at 1 h, up to 20 µM (×10⁻⁶ cm/s)
State the answer as a number, implicitly in ×10⁻⁶ cm/s.

Prompt line: // returns reported Papp B→A at 1 h, up to 20 µM for input `Cc1cc(Nc2cc(Cl)cc(Cl)c2)nc(N)n1`
Response line: 13.5

----------
target: S-adenosylmethionine decarboxylase proenzyme (Homo sapiens); experiment: Inhibition of recombinant human N-terminal His6-tagged AdoMetDC expressed in Escherichia coli BL21/DE3 cells at pH 7.2 by RapidFire-MS-based enzyme activity assay
pIC50: −log10 of the molar value.
Entries and their pIC50

mol	pIC50
Cc1cc(Nc2cc(F)cc(F)c2)nc(N)n1	< 3.74

Prompt line: // returns reported pIC50 for input `Cc1cc(Nc2cc(C(F)(F)F)ccc2Cl)nc(N)n1`
Response line: < 3.74

Prompt line: Thanks! And `Cc1nc(N)cc(Nc2cc(Cl)cc(Br)c2)n1` ?
Response line: < 3.74

Prompt line: Thanks! And `Cc1cc(Nc2cc(Cl)cc(-c3ccc(Cl)cc3)c2)nc(N)n1` ?
Response line: < 4.20

Prompt line: Thanks! And `Cc1cc(Nc2cc(Cl)ccc2C)nc(N)n1` ?
Response line: < 3.74

Prompt line: Thanks! And `Cc1cc(Nc2cccc(Cl)c2)nc(N)n1` ?
Response line: < 3.74

Prompt line: Thanks! And `Cc1cc(Nc2cc(Cl)cc(-c3ccc(C(F)(F)F)cc3)c2)nc(N)n1` ?
Response line: < 4.68

Prompt line: Thanks! And `Cc1cc(Nc2cc(-c3ccccc3)cc(-c3ccccc3)c2)nc(N)n1` ?
Response line: < 3.74

Prompt line: Thanks! And `Cc1cc(Nc2ccc(C(F)(F)F)cc2)nc(N)n1` ?
Response line: < 3.74

Prompt line: Thanks! And `Cc1cc(Nc2cc(Cl)c(OC(F)F)c(Cl)c2)nc(N)n1` ?
Response line: < 4.20

Prompt line: Thanks! And `Cc1cc(Nc2cc(Cl)cc(-c3cnn(C)c3)c2)nc(N)n1` ?
Response line: < 3.74

Prompt line: Thanks! And `Cc1cc(Nc2ccc(Cl)cc2Cl)nc(N)n1` ?
Response line: < 3.74
